Cited source: the supplement of paper PMC10065799

- system.tested: Hck (UniProt P08631)
- Sequence (P08631 whole entry, looked up): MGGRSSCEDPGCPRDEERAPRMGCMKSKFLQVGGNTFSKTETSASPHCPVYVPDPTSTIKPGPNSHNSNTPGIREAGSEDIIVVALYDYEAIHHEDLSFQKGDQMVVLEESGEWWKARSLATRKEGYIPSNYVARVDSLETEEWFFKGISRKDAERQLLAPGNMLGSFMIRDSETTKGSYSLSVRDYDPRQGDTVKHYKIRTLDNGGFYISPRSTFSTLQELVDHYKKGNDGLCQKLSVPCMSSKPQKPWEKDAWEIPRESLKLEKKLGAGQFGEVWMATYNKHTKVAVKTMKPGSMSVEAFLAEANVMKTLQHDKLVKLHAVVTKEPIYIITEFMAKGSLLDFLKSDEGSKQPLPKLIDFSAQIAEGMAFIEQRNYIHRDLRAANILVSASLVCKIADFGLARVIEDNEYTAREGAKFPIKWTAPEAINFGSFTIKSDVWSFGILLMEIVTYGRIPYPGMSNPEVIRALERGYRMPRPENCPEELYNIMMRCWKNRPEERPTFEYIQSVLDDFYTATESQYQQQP
- assay.method.text: phosphorylation enrichment, bacterial display (enrichment ratio); higher = better substrate or ligand; peptides without Tyr show the background;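 further: 11-residue human phosphosite peptides and single-mutation variants displayed on the E. coli surface, counted by deep sequencing, each peptide's frequency after selection divided by its frequency in the unselected input library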;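 further: frequency after pTyr selection over input frequency; kinase dosed for 20-30% of maximal phosphorylation in three min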
Would you mind labelling by phosphorylation enrichment? At or over 1 is 1, under is 0.

*Q* Quick check: does RRNTFYASIAK [ACADM_Y353_YF] have phosphorylation enrichment greater than or equal to 1?
*A* 0

*Q* Quick check: does TDLAYYLVRKG [ASL_Y376] have phosphorylation enrichment greater than or equal to 1?
*A* 0

*Q* Quick check: does "LTDLRYKVSGL" have phosphorylation enrichment greater than or equal to 1?
*A* 0

*Q* Quick check: does DNEALYDICFR [TUBB2B_Y208] have phosphorylation enrichment greater than or equal to 1?
*A* 1

*Q* Quick check: does WQQQSYLDLGI [CTNNB1_Y30_S33L] have phosphorylation enrichment greater than or equal to 1?
*A* 0

*Q* Quick check: does QQLVAYYSKHT [SRC_Y232_A237T] have phosphorylation enrichment greater than or equal to 1?
*A* 0

*Q* Quick check: does DSDTDYGSGFP [RNASEH2A_Y206_L202S_YF] have phosphorylation enrichment greater than or equal to 1?
*A* 0
